ASSAYED_TARGET: CYP1A2 (Homo sapiens)
Sequence (P05177 whole entry): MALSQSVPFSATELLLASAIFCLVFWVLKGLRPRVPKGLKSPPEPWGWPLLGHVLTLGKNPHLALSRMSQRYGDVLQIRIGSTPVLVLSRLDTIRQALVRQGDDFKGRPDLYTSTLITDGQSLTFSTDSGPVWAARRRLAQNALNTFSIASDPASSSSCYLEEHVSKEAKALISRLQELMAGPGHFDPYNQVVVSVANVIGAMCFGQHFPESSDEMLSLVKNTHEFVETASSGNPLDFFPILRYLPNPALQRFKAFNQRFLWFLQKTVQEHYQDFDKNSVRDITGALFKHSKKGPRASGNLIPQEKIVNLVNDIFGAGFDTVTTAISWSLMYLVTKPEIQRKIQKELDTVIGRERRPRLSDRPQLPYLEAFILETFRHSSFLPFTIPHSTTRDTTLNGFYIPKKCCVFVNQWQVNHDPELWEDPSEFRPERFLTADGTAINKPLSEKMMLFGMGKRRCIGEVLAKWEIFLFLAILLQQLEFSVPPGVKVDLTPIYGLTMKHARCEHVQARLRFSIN
PROTOCOL_SUMMARY: Cytochrome P450 inhibition
Assay type: biochemical
ASSAY_CONTEXT: read-out: IC50 CYP1A2
pIC50: −log10 of the molar value.

# MOLECULE, ASSAYED_TARGET, pIC50
data = [
    ("NCCO [Etn, monoethanolamine]", "CYP1A2 (Homo sapiens)", "< 4.00"),
]

---

ASSAYED_TARGET: CYP2D6 (Homo sapiens)
Sequence (P10635 whole entry): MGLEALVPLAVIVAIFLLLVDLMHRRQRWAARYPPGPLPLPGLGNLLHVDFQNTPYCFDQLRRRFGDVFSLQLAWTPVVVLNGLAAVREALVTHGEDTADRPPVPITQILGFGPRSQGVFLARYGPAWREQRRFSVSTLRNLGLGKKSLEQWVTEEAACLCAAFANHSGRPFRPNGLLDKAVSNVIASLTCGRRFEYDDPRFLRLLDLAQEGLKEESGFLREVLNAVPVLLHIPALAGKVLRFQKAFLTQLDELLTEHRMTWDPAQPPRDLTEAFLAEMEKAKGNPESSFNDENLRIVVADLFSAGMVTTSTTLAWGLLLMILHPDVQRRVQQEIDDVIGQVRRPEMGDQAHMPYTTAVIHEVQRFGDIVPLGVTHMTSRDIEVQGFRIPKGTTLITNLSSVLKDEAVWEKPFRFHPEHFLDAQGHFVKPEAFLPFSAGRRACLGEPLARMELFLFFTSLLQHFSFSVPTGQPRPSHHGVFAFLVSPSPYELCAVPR
PROTOCOL_SUMMARY: Cytochrome P450 inhibition
Type: biochemical
ASSAY_CONTEXT: read-out: IC50 CYP2D6
Readings of IC50 for the listed molecules

# SMILES_STR, ASSAYED_TARGET, IC50
measured = [
    ("NCCOP(=O)(O)O", "CYP2D6 (Homo sapiens)", "> 100 µM"),
    ("NCCO", "CYP2D6 (Homo sapiens)", "> 100 µM"),
]
